- TEST SYSTEM: HLA-B*27:03
- PROTOCOL DETAILS: IEDB peptide-MHC binding, purified MHC/direct/fluorescence; filed as Kd, often an IC50 or EC50 that approximates it; bounds were set here for any values at or beyond the usual limits of such assays
- PARTICULARS: source organism: Vibrio parahaemolyticus AQ3810
pKd: −log10 of the molar value.
OBSERVABLE: pKd

Ask | Read off the recorded pKd for "MAYGFFNNI"
Reply | ≤ 4.70

---

- TEST SYSTEM: HLA-A*26:01
- PROTOCOL DETAILS: IEDB peptide-MHC binding, purified MHC/competitive/radioactivity; filed as Kd, often an IC50 or EC50 that approximates it; bounds were set here for any values at or beyond the usual limits of such assays
- PARTICULARS: source organism: Dengue virus 2 16681-PDK53
OBSERVABLE: pKd
On this scale, pKd is minus log10 of a concentration expressed in M (mol/L).

Ask | Identify measured pKd corresponding to "EKMEALQRKY"
Reply | 5.20

---

- TEST SYSTEM: HLA-A*31:01
- PROTOCOL DETAILS: IEDB peptide-MHC binding, purified MHC/competitive/radioactivity; filed as Kd, often an IC50 or EC50 that approximates it; bounds were set here for any values at or beyond the usual limits of such assays
- PARTICULARS: source organism: Dengue virus 3 Sri Lanka/1266/2000
OBSERVABLE: pKd
Kindly note that pKd refers to -log10 of the concentration in mol/L and answer with the value alone.

Ask | Give the observed pKd of "TIFTLTVAWR" for HLA-A*31:01.
Reply | 6.40

---

- TEST SYSTEM: HLA-A*26:01
- PROTOCOL DETAILS: IEDB peptide-MHC binding, purified MHC/competitive/radioactivity; filed as Kd, often an IC50 or EC50 that approximates it; bounds were set here for any values at or beyond the usual limits of such assays
- PARTICULARS: source organism: Dengue virus 3 Martinique/1243/1999
OBSERVABLE: pKd
By convention, pKd is the negative base-10 log of a molar concentration.

Consider the following illustrative entries.
IAIGIITLY; 7.89
YTALFSGVSW; 6.04
MVHQIFGSAY; 7.94

Next up:
Ask | For "EISNMLSII" , write its pKd.
Reply | 5.47

---

- TEST SYSTEM: HLA-A*30:02
- PROTOCOL DETAILS: IEDB peptide-MHC binding, purified MHC/competitive/radioactivity; filed as Kd, often an IC50 or EC50 that approximates it; bounds were set here for any values at or beyond the usual limits of such assays
- PARTICULARS: source organism: Mammarenavirus brazilense
OBSERVABLE: pKd
// pKd is dimensionless: -log10 of concentration (M)

Ask | Name the recorded pKd of the sequence listed here: "ELLGYCVSLF"
Reply | 4.76

---

- TEST SYSTEM: HLA-B*15:09
- PROTOCOL DETAILS: IEDB peptide-MHC binding, purified MHC/direct/fluorescence; filed as Kd, often an IC50 or EC50 that approximates it; bounds were set here for any values at or beyond the usual limits of such assays
- PARTICULARS: source organism: Cryptosporidium parvum Iowa II
pKd: −log10 of the molar value.
OBSERVABLE: pKd

Ask | Quote pKd reported for "RKWGLDFCY" please.
Reply | ≤ 4.70

---

- TEST SYSTEM: HLA-B*57:01
- PROTOCOL DETAILS: IEDB peptide-MHC binding, purified MHC/direct/fluorescence; filed as Kd, often an IC50 or EC50 that approximates it; bounds were set here for any values at or beyond the usual limits of such assays
- PARTICULARS: source organism: Influenza A virus
pKd: −log10 of the molar value.
OBSERVABLE: pKd

Ask | Provide measured pKd value, entry: "DWSGYSGSF"
Reply | ≤ 4.70

---

- TEST SYSTEM: HLA-A*02:01
- PROTOCOL DETAILS: IEDB peptide-MHC binding, purified MHC/competitive/radioactivity; filed as Kd, often an IC50 or EC50 that approximates it; bounds were set here for any values at or beyond the usual limits of such assays
- PARTICULARS: source organism: Dengue virus 1 Nauru/West Pac/1974
OBSERVABLE: pKd
Worth noting: pKd values are minus log10 of concentrations stated in mol/L.

Ask | Output reported pKd of the sequence "SLLFKTSAGV" on HLA-A*02:01.
Reply | 7.67

---

- TEST SYSTEM: HLA-B*15:01
- PROTOCOL DETAILS: IEDB peptide-MHC binding, purified MHC/competitive/fluorescence; bounds were set here for any values at or beyond the usual limits of such assays
- PARTICULARS: source organism: Vaccinia virus Copenhagen
OBSERVABLE: IC50 (µM)
Report the value in µM with no unit label.

Ask | Report IC50 on HLA-B*15:01 for this entry: "YVTLNASQY"
Reply | 8.06

Ask | Please indicate recorded IC50 of "KAIITPIVF" measured with HLA-B*15:01.
Reply | 15.7

---

- TEST SYSTEM: HLA-A*30:01
- PROTOCOL DETAILS: IEDB peptide-MHC binding, purified MHC/competitive/radioactivity; filed as Kd, often an IC50 or EC50 that approximates it; bounds were set here for any values at or beyond the usual limits of such assays
- PARTICULARS: source organism: Dengue virus 2 Jamaica/1409/1983
Kd for assorted sequences
// note: answer is a bare numeric in µM

KVSCTILAA; 0.0677
LTTRNGEPHM; 13.7

--- query ---
Ask | Using HLA-A*30:01 as the test system, report measured Kd of "INRFTMKHK" .
Reply | 7.95

---

- TEST SYSTEM: HLA-A*32:07
- PROTOCOL DETAILS: IEDB peptide-MHC binding, purified MHC/competitive/fluorescence; filed as Kd, often an IC50 or EC50 that approximates it; bounds were set here for any values at or beyond the usual limits of such assays
- PARTICULARS: source organism: Escherichia coli K-12
OBSERVABLE: Kd (nM)
Give just the number in nM; leave the unit off.

Ask | Using the record for "RQWGMGFLL" , state its measured Kd.
Reply | 1.2

---

- TEST SYSTEM: HLA-A*26:01
- PROTOCOL DETAILS: IEDB peptide-MHC binding, purified MHC/competitive/radioactivity; filed as Kd, often an IC50 or EC50 that approximates it; bounds were set here for any values at or beyond the usual limits of such assays
- PARTICULARS: source organism: Dengue virus 2 Jamaica/1409/1983
OBSERVABLE: pKd
Field pKd (float): negative decimal logarithm of the concentration in molar.

TTIAVSMANI; 5.45
ETILELTDAL; 6.56
SSVNMISRM; 5.87

Here is another sequence to look at.
Ask | Complete the entry with pKd for "TTMRGAKRM"
Reply | 5.09

---

- TEST SYSTEM: HLA-A*25:01
- PROTOCOL DETAILS: IEDB peptide-MHC binding, purified MHC/competitive/fluorescence; bounds were set here for any values at or beyond the usual limits of such assays
- PARTICULARS: source organism: Homo sapiens
OBSERVABLE: IC50

Ask | Report measured IC50; entry is "ILNRETLLDFV"
Reply | ≥ 20 µM

---

# Lookup of reported pIC50 keyed by entry
- TEST SYSTEM: HLA-B*15:01
- PROTOCOL DETAILS: IEDB peptide-MHC binding, purified MHC/competitive/fluorescence; bounds were set here for any values at or beyond the usual limits of such assays
- PARTICULARS: source organism: Zaire ebolavirus
Keep it numeric: pIC50 is minus log10 of the concentration in mol/L.

IQYPTAWQS; 4.59
RQRVIPVYQ; 5.20
TFAEGVVAF; 4.73
ISFQQTNAM; 5.21

Ask | Identify pIC50 associated with the sequence "WMAPSLTES"
Reply | 4.94

---

- TEST SYSTEM: HLA-A*01:01
- PROTOCOL DETAILS: IEDB peptide-MHC binding, purified MHC/direct/fluorescence; filed as Kd, often an IC50 or EC50 that approximates it; bounds were set here for any values at or beyond the usual limits of such assays
- PARTICULARS: source organism: Cryptosporidium parvum
OBSERVABLE: Kd

Ask | Assign Kd to the following record: "RKWGLDFCY"
Reply | ≥ 20 µM

---

- TEST SYSTEM: HLA-A*26:01
- PROTOCOL DETAILS: IEDB peptide-MHC binding, purified MHC/competitive/fluorescence; filed as Kd, often an IC50 or EC50 that approximates it; bounds were set here for any values at or beyond the usual limits of such assays
- PARTICULARS: source organism: Reston ebolavirus
pKd: −log10 of the molar value.
OBSERVABLE: pKd

Ask | Provide HLA-A*26:01 pKd reading for "TTDDSTSYY" .
Reply | ≤ 4.70
